Cited source: PubChem BioAssay (Tox21)

protocol text: qHTS RealTime-Glo MT Cell Viability Assay in HepG2 cells - 0 hour (AID 1224889); further: nearly all actives have a fitted effect of over 50% in size
conditions used: RealTime-Glo luminescence; series mostly up to 76.8 µM
Inconclusive results are not listed. Calls of active or inactive are those of the source. The call rests on the fitted dose curve; in most records, active means well fitted cell-killing curve with a large enough effect in the repeat runs; inconclusive means weak or mixed curves, or effect the other way; inactive means flat fitted curve, though single readings scatter.
Response enum: Yes = active, No = inactive

A selection of reference data follows.
CCCCCCCCCCCC[N+](C)(C)CC(=O)[O-] ... No
COC(=O)[C@@H]1CC2=CC(=O)CC[C@]2(C)[C@@]23O[C@@H]2C[C@@]2(C)[C@@H](CC[C@@]24CCC(=O)O4)[C@H]13 ... No
N#C/C(=C1\SCC(c2ccccc2Cl)S1)n1ccnc1 (stereo unspecified) ... No

# ---- query molecule ----
Exam item: Dear all, I need the recorded test outcome for CC1=CC(O)CC(C)(C)C1 (stereo unspecified) , thank you.
Marked response: No
